Measured viability, T/C, listed per entry.
Test system: 171881-019-R-J1-PDC tumor spheroid viability
Assay: Anticancer human tumor 171881-019-R-J1-PDC patient-derived invasive breast carcinoma cell line growth inhibition [PI3K]
Conditions: second compound 0.0316 µM; first compound 10 µM; stronger effect = lower value; spheroids with HUVEC and MSC
Report the value in % with no unit label.

The examples below pair each entry with its known result.
| compound | viability, T/C [%] |
| --- | --- |
| C=CC(=O)N1CCN(c2nc(=O)n(-c3c(C)ccnc3C(C)C)c3nc(-c4c(O)cccc4F)c(F)cc23)C(C)C1 (stereo unspecified) + Cc1nc(NC(=O)N2CCCC2C(N)=O)sc1-c1ccnc(C(C)(C)C(F)(F)F)c1 | 48.8 |
| Cn1nccc1Nc1nccc(-c2ccn(C(CO)c3ccc(Cl)c(F)c3)c(=O)c2)n1 (stereo unspecified) + CC(Nc1ncnc2nc[nH]c12)c1cc2cccc(Cl)c2c(=O)n1-c1ccccc1 | 20.7 |
| C[C@@H](NC(=O)c1ncnc(N)c1Cl)c1ncc(C(=O)Nc2cc(C(F)(F)F)c(Cl)cn2)s1 + Cc1nc(NC(=O)N2CCCC2C(N)=O)sc1-c1ccnc(C(C)(C)C(F)(F)F)c1 | 38.7 |
| Cn1nccc1Nc1nccc(-c2ccn(C(CO)c3ccc(Cl)c(F)c3)c(=O)c2)n1 (stereo unspecified) + CC(Nc1ccc2c(c1)OCCn1cc(N3C(=O)OCC3C(F)F)nc1-2)C(N)=O | 9.67 |
| CC1(C)CCC(CN2CCN(c3ccc(C(=O)NS(=O)(=O)c4ccc(NCC5CCOCC5)c([N+](=O)[O-])c4)c(Oc4cnc5[nH]ccc5c4)c3)CC2)=C(c2ccc(Cl)cc2)C1 + Cc1nc(NC(=O)N2CCCC2C(N)=O)sc1-c1ccnc(C(C)(C)C(F)(F)F)c1 | 13.9 |
| CC1(C)CCC(Nc2ncc(C(F)(F)F)c(-c3c[nH]c4c(P(C)(C)=O)c(C#N)ccc34)n2)CN1 (stereo unspecified) + CC(Nc1ccc2c(c1)OCCn1cc(N3C(=O)OCC3C(F)F)nc1-2)C(N)=O | 5.82 |
| CC(C)NCC(C(=O)N1CCN(c2ncnc3c2C(C)CC3O)CC1)c1ccc(Cl)cc1 (stereo unspecified) + Cc1nc(NC(=O)N2CCCC2C(N)=O)sc1-c1ccnc(C(C)(C)C(F)(F)F)c1 | 9.99 |
| Cn1nccc1Nc1nccc(-c2ccn(C(CO)c3ccc(Cl)c(F)c3)c(=O)c2)n1 (stereo unspecified) + Cc1nc(NC(=O)N2CCCC2C(N)=O)sc1-c1ccnc(C(C)(C)C(F)(F)F)c1 | 18.4 |

**Q:** Return reported viability, T/C for target or system 171881-019-R-J1-PDC tumor spheroid viability, item C[C@@H](NC(=O)c1ncnc(N)c1Cl)c1ncc(C(=O)Nc2cc(C(F)(F)F)c(Cl)cn2)s1 + CC(Nc1ccc2c(c1)OCCn1cc(N3C(=O)OCC3C(F)F)nc1-2)C(N)=O .
**A:** 17.1

**Q:** Return reported viability, T/C for target or system 171881-019-R-J1-PDC tumor spheroid viability, item CCCS(=O)(=O)Nc1ccc(F)c(C(=O)c2c[nH]c3ncc(-c4ccc(Cl)cc4)cc23)c1F + Cc1nc(NC(=O)N2CCCC2C(N)=O)sc1-c1ccnc(C(C)(C)C(F)(F)F)c1 .
**A:** 11.7

**Q:** Return reported viability, T/C for target or system 171881-019-R-J1-PDC tumor spheroid viability, item C#Cc1c(F)ccc2cc(O)cc(-c3ncc4c(N5CC6CCC(C5)N6)nc(OCC56CCCN5CC(F)C6)nc4c3F)c12 (stereo unspecified) + COc1c(OCCCN2CCOCC2)ccc2c3n(c(=NC(=O)c4cnc(N)nc4)nc12)CCN3 .
**A:** 4.3

###

Test system: 171881-019-R-J1-PDC tumor spheroid viability
Assay: Anticancer human tumor 171881-019-R-J1-PDC cell line growth inhibition [PI3K]; active means viability on the fitted dose curve at most 10% of control; inactive means the rest;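 also: spheroids exposed to compound for 7 days before viability read; 100% = DMSO vehicle-treated spheroids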
Details: second compound 0.316 µM; first compound 0.0949 µM; spheroids with HUVEC and MSC
From the text: Combinatorial screen of targeted agents with the PI3K inhibitors inavolisib, alpelisib, duvelisib, and copanlisib in multi-cell type tumor spheroids A high-throughput screen of multi-cell type tumor spheroids was designed to identify active combinations of targeted small molecules and PI3K pathway inhibitors. […] Compounds. […] If the clinical Cmax for an agent had not been determined, the highest concentration tested was 10 microM. […]
Can you answer with just one of these options? active, inactive

| compound | experimental.target | assigned.class |
| --- | --- | --- |
| Cn1cnc2c(F)c(Nc3ccc(Br)cc3Cl)c(C(=O)NOCCO)cc21 + Cc1nc(NC(=O)N2CCCC2C(N)=O)sc1-c1ccnc(C(C)(C)C(F)(F)F)c1 | 171881-019-R-J1-PDC tumor spheroid viability | inactive |

**Q:** Which outcome was assigned to Cn1cnc2c(F)c(Nc3ccc(Br)cc3Cl)c(C(=O)NOCCO)cc21 + CC(Nc1ncnc2nc[nH]c12)c1cc2cccc(Cl)c2c(=O)n1-c1ccccc1 in this test?
**A:** inactive

**Q:** Which outcome was assigned to Cn1cnc2c(F)c(Nc3ccc(Br)cc3Cl)c(C(=O)NOCCO)cc21 + CC(Nc1ccc2c(c1)OCCn1cc(N3C(=O)OCC3C(F)F)nc1-2)C(N)=O in this test?
**A:** inactive

**Q:** Which outcome was assigned to Cn1cnc2c(F)c(Nc3ccc(Br)cc3Cl)c(C(=O)NOCCO)cc21 + COc1c(OCCCN2CCOCC2)ccc2c3n(c(=NC(=O)c4cnc(N)nc4)nc12)CCN3 in this test?
**A:** active

###

System: 171881-019-R-J1-PDC tumor spheroid viability
Assay: Anticancer human tumor 171881-019-R-J1-PDC cell line growth inhibition [PI3K];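 also: spheroids exposed to compound for 7 days before viability read; 100% = DMSO vehicle-treated spheroids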
Settings: second compound 0.00316 µM; first compound 1 µM; stronger effect = lower value; spheroids with HUVEC and MSC
quantity.measured: viability, T/C (%)
Report the value in % with no unit label.

| compound | quantity.measured | result.value |
| --- | --- | --- |
| CCN1CCN(Cc2ccc(Nc3ncc(F)c(-c4cc(F)c5nc(C)n(C(C)C)c5c4)n3)nc2)CC1 + COc1c(OCCCN2CCOCC2)ccc2c3n(c(=NC(=O)c4cnc(N)nc4)nc12)CCN3 | viability, T/C | 99.6 |
| CNC(=O)c1ccc(N2C(=S)N(c3ccc(C#N)c(C(F)(F)F)c3)C(=O)C2(C)C)cc1F + CC(Nc1ccc2c(c1)OCCn1cc(N3C(=O)OCC3C(F)F)nc1-2)C(N)=O | viability, T/C | 93.6 |
| C=CC(=O)N1CCN(c2nc(=O)n(-c3c(C)ccnc3C(C)C)c3nc(-c4c(O)cccc4F)c(F)cc23)C(C)C1 (stereo not given) + COc1c(OCCCN2CCOCC2)ccc2c3n(c(=NC(=O)c4cnc(N)nc4)nc12)CCN3 | viability, T/C | 66.9 |
| CC1(C)CCC(Nc2ncc(C(F)(F)F)c(-c3c[nH]c4c(P(C)(C)=O)c(C#N)ccc34)n2)CN1 (stereo not given) + CC(Nc1ccc2c(c1)OCCn1cc(N3C(=O)OCC3C(F)F)nc1-2)C(N)=O | viability, T/C | 72.6 |
| Cn1nccc1Nc1nccc(-c2ccn(C(CO)c3ccc(Cl)c(F)c3)c(=O)c2)n1 (stereo not given) + COc1c(OCCCN2CCOCC2)ccc2c3n(c(=NC(=O)c4cnc(N)nc4)nc12)CCN3 | viability, T/C | 18.1 |
| CC(C)NCC(C(=O)N1CCN(c2ncnc3c2C(C)CC3O)CC1)c1ccc(Cl)cc1 (stereo not given) + COc1c(OCCCN2CCOCC2)ccc2c3n(c(=NC(=O)c4cnc(N)nc4)nc12)CCN3 | viability, T/C | 27.6 |
| C#Cc1c(F)ccc2cc(O)cc(-c3ncc4c(N5CC6CCC(C5)N6)nc(OCC56CCCN5CC(F)C6)nc4c3F)c12 (stereo not given) + COc1c(OCCCN2CCOCC2)ccc2c3n(c(=NC(=O)c4cnc(N)nc4)nc12)CCN3 | viability, T/C | 20.7 |
| CC1(C)CCC(CN2CCN(c3ccc(C(=O)NS(=O)(=O)c4ccc(NCC5CCOCC5)c([N+](=O)[O-])c4)c(Oc4cnc5[nH]ccc5c4)c3)CC2)=C(c2ccc(Cl)cc2)C1 + COc1c(OCCCN2CCOCC2)ccc2c3n(c(=NC(=O)c4cnc(N)nc4)nc12)CCN3 | viability, T/C | 75.8 |
| CCN1CCN(Cc2ccc(Nc3ncc(F)c(-c4cc(F)c5nc(C)n(C(C)C)c5c4)n3)nc2)CC1 + CC(Nc1ccc2c(c1)OCCn1cc(N3C(=O)OCC3C(F)F)nc1-2)C(N)=O | viability, T/C | 122 |

Below: the item to evaluate.
**Q:** Specify measured viability, T/C for CCCS(=O)(=O)Nc1ccc(F)c(C(=O)c2c[nH]c3ncc(-c4ccc(Cl)cc4)cc23)c1F + CC(Nc1ccc2c(c1)OCCn1cc(N3C(=O)OCC3C(F)F)nc1-2)C(N)=O .
**A:** 109
